- System: M19-MEL
- assayProtocol: NCI tumour cell line growth inhibition, 48 h
The source made the active and inactive calls. Rule as the data show it: active = GI50 up to about 1.1 µM and inactive = higher.
Possible outcomes: YES for active, NO for inactive

- O=C(O)CN(c1ccc(F)cc1)S(=O)(=O)c1ccccc1: NO
- CC(/C=C/c1ncccc1OCCCCCC(=O)O)=N\NC1=NCCN1: NO
- CN(C)c1ccc(/C=N\N2C(=O)c3ccccc3C2=O)cc1: NO
- c1ccc2c(NCCCCCCNc3cccc4ccccc34)cccc2c1: NO
- O=C(N/C(=C/c1cccc([N+](=O)[O-])c1)c1nc2cc(Cl)ccc2[nH]1)c1ccccc1: NO
- O=C1c2ccccc2C(=O)c2c(O)c(O)cc(O)c21: NO
- COC(OC)c1cccnc1C: NO
- CN(C)c1cccc(-c2cc(O)c3cc4c(cc3n2)OCO4)c1: YES
- CCN(CC)C(=O)Cc1c(C(=O)N(CC)CC)c(=O)nc2sccn12: NO
- COC[C@@H]1Cc2cc(OC)c3c(c2[C@H](c2ccc(OC)c(OC)c2)[C@H]1COC)OCO3: NO
- COC(=O)CCC(=O)CC(=O)C(=O)Nc1ccc(F)cc1: NO
- Cn1c2c(c3ccccc31)CCN(CCN1CCN(c3cccc(Cl)c3)CC1)C2=O: NO
